The reported numbers originate from patent US10689354B2.

molecular target: androgen receptor (AR-LBD) (Rattus norvegicus, UniProt P15207); construct: 5 μL of 2×AR-LBD/Fluoromone AL Red Complex contained in the kit; purchased Invitrogen; test: Evaluation of androgen receptor affinity (PolarScreen Androgen Receptor Competitor Assay Kit, Red; fluorescence polarization); settings: 22° C. for 5 hours, relative to binding rate of 1 μM DHT, read-out: AR affinity (pEC50) (converted)
# note: boundary value 100 nM maps to Criterion not met; EC50 below it maps to Criterion met

Answered examples (3):
1. Cc1sc(N(CCc2ccc(C#N)cc2)Cc2ccc(OC(F)(F)F)cc2)nc1C(=O)NS(=O)(=O)C(F)(F)F
Criterion not met
2. Cc1sc(N(CCCOCc2ccccc2)c2ccc(C#N)cc2)nc1C(=O)NS(C)(=O)=O
Criterion not met
3. Cc1sc(N(CCc2ccccn2)Cc2ccccc2)nc1C(=O)NS(C)(=O)=O
Criterion not met

In the following, a different compound is considered.
Req: Please check: EC50 for Cc1sc(N(Cc2ccc(Cl)c(Cl)c2)c2ccc(C#N)cc2)nc1C(=O)NS(C)(=O)=O , strictly under 100 nM or not?
Resp: Criterion met

---

molecular target: human androgen receptor (Homo sapiens, UniProt P10275); construct: expressed in transfected cells; host or cells: HEK293; experiment: Reporter assay of an androgen receptor responsive sequence (luciferase, transiently transfected HEK293 cells); format: cell-based; conditions: 24 hours incubation, relative to activity of 100 nM DHT, read-out: AR transcriptive activity (pEC50) (converted)
Sequence (P10275 whole entry): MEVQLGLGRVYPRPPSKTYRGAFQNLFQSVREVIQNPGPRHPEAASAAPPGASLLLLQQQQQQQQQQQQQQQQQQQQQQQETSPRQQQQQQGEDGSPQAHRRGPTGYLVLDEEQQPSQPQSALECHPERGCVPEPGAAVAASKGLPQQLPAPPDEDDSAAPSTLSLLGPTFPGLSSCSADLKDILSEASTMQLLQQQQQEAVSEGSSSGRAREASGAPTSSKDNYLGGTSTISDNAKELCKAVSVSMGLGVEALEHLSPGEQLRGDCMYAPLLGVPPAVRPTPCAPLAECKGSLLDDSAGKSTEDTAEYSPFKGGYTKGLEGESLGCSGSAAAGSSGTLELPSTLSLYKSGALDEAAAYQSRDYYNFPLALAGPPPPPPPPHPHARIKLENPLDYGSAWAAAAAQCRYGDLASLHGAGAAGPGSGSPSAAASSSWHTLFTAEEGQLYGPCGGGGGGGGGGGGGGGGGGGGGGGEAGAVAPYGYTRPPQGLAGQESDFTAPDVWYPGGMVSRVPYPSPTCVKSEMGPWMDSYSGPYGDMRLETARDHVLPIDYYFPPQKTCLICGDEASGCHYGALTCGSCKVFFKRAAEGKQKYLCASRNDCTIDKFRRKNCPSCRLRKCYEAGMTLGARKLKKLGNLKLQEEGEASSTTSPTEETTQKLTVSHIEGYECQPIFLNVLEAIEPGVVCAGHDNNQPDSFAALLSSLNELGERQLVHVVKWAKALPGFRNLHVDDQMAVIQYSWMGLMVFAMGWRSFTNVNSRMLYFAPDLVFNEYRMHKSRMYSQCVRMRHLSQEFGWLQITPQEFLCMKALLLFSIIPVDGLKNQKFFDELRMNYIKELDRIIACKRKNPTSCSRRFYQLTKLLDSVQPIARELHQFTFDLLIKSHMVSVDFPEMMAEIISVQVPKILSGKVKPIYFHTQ
property: EC50 (nM)
Give bare numbers, in nM.

Completed entries (count: 6):
1. Cc1sc(N(Cc2ccccc2)CC(F)(F)c2ccc(Cl)cc2)nc1C(=O)NS(C)(=O)=O
3980
2. Cc1sc(N(Cc2ccccc2SC(F)(F)F)c2ccc(C#N)cc2)nc1C(=O)NS(C)(=O)=O
6310
3. Cc1sc(N(Cc2ccc3ccccc3c2)c2ccc(C#N)cc2)nc1C(=O)NS(C)(=O)=O
50.1
4. CS(=O)(=O)NC(=O)c1nc(N(Cc2ccc(F)cc2)c2ccc(C(F)(F)F)nc2)sc1Br
316
5. Cc1sc(N(Cc2ccc(F)c(C(F)(F)F)c2)c2ccc(C#N)cc2)nc1C(=O)NS(C)(=O)=O
79.4
6. Cc1sc(N(Cc2cc(C(F)(F)F)ccn2)c2ccc(C#N)cc2)nc1C(=O)NS(C)(=O)=O
631

Then there is this compound:
Req: Entry COc1ccc(CN(c2ccc(C#N)cc2)c2nc(C(=O)NS(C)(=O)=O)c(Cl)s2)cc1 : reported EC50 = ?
Resp: 50.1

---

molecular target: human androgen receptor (Homo sapiens, UniProt P10275); construct: expressed in transfected cells; host or cells: HEK293; assay: Reporter assay of an androgen receptor responsive sequence (luciferase, transiently transfected HEK293 cells); format: cell-based; conditions: 24 hours incubation, relative to activity of 100 nM DHT, read-out: AR transcriptive activity (pEC50) (converted)
property: EC50 (µM)
Give bare numbers, in µM.

1. CCS(=O)(=O)NC(=O)c1nc(N(CCC2CCCCC2)Cc2ccc(Cl)cc2)sc1C
5.01
2. Cc1sc(N(Cc2ccsc2)c2ccc(C#N)cc2)nc1C(=O)NS(C)(=O)=O
0.316
3. Cc1sc(N(Cc2ccco2)c2ccc(C#N)cc2)nc1C(=O)NS(C)(=O)=O
1

Now for a further molecule.
Req: Item: Cc1nc(CN(c2ccc(C#N)cc2)c2nc(C(=O)NS(C)(=O)=O)c(C)s2)cs1 Test system: human androgen receptor (Homo sapiens, UniProt P10275) Read-out: EC50 Value: ?
Resp: 0.501

---

biological target: androgen receptor (AR-LBD) (Rattus norvegicus, UniProt P15207); construct: 5 μL of 2×AR-LBD/Fluoromone AL Red Complex contained in the kit; purchased Invitrogen; assay: Evaluation of androgen receptor affinity (PolarScreen Androgen Receptor Competitor Assay Kit, Red; fluorescence polarization); settings: 22° C. for 5 hours, relative to binding rate of 1 μM DHT, read-out: AR affinity (pEC50) (converted)
Under this convention, y denotes EC50 strictly below 400 nM and n denotes EC50 at or above 400 nM.

1. Cc1sc(N(Cc2ccccc2)c2ccc(F)cc2)nc1C(=O)NS(C)(=O)=O [Compound 28]
n
2. Cc1sc(N(Cc2ccccc2)c2cccc(C(F)(F)F)c2)nc1C(=O)NS(C)(=O)=O [Example 224]
n
3. CCS(=O)(=O)NC(=O)c1nc(N(Cc2ccc(Cl)cc2)c2ccc(C#N)cc2)oc1C [Compound 627]
y
4. CCc1oc(N(Cc2ccc(Cl)cc2)c2ccc(C#N)cc2)nc1C(=O)NS(C)(=O)=O [Compound 623]
y

Req: Please let me know if Cc1oc(N(Cc2ccccc2)c2ccc(C#N)cc2)nc1C(=O)NS(C)(=O)=O [Compound 598] shows EC50 below 400 nM.
Resp: y

Req: Say whether its EC50 is strictly beneath 400 nM. Entry: Cc1sc(N(Cc2cscn2)c2ccc(C#N)cc2)nc1C(=O)NS(C)(=O)=O [Compound 380]
Resp: n

Req: Answer whether the compound Cc1sc(N(Cc2ccc(Cl)cc2OC(F)F)c2ccc(C#N)cc2)nc1C(=O)NS(C)(=O)=O [Example 193] has EC50 strictly less than 400 nM
Resp: y

---

Molecular target: androgen receptor (AR-LBD) (Rattus norvegicus)
Construct: 5 μL of 2×AR-LBD/Fluoromone AL Red Complex contained in the kit; purchased Invitrogen
Sequence (P15207 651-882 limits assumed): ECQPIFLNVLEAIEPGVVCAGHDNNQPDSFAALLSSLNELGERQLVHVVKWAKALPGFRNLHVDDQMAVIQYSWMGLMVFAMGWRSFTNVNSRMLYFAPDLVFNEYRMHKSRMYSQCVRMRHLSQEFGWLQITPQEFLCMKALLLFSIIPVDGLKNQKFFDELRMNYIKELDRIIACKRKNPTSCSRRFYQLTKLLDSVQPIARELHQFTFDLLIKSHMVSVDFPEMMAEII
Experiment: Evaluation of androgen receptor affinity (PolarScreen Androgen Receptor Competitor Assay Kit, Red; fluorescence polarization)
Details: 22° C. for 5 hours, relative to binding rate of 1 μM DHT, read-out: AR affinity (pEC50) (converted)
Lab note - cut at 100 nM for EC50: criterion met if strictly below, criterion not met if not.

1) Cc1sc(N(Cc2ccc(-c3ccccc3F)cc2)c2ccc(C#N)cc2)nc1C(=O)NS(C)(=O)=O [Compound 590]
criterion met
2) Cc1sc(N(Cc2cc(C(F)(F)F)ccc2Cl)c2ccc(C#N)cc2)nc1C(=O)NS(C)(=O)=O [Compound 417]
criterion not met
3) CS(=O)(=O)NC(=O)c1nc(N(Cc2ccccc2)c2ccc(C#N)cc2)sc1C(F)F [Example 284]
criterion not met
4) Cc1sc(N(CCc2ccc(C(=O)OC(C)(C)C)cc2)Cc2ccccc2)nc1C(=O)NS(C)(=O)=O [Compound 327]
criterion not met
5) Cc1sc(N(Cc2cc(F)c(F)cc2F)c2ccc(C#N)cc2)nc1C(=O)NS(C)(=O)=O [Compound 110]
criterion met

Req: Take the compound Cc1sc(N(CC(=O)c2ccccc2)Cc2ccccc2)nc1C(=O)NS(C)(=O)=O [Compound 463] and say whether its EC50 is less than 100 nM.
Resp: criterion not met

---

Please respond with reported log10 of EC50 for every item in the list.
target: androgen receptor (AR-LBD) (Rattus norvegicus, UniProt P15207); construct: 5 μL of 2×AR-LBD/Fluoromone AL Red Complex contained in the kit; purchased Invitrogen; experiment: Evaluation of androgen receptor affinity (PolarScreen Androgen Receptor Competitor Assay Kit, Red; fluorescence polarization); details: 22° C. for 5 hours, relative to binding rate of 1 μM DHT, read-out: AR affinity (pEC50) (converted)
Parameter value (number): base-10 log of EC50 in nM.

In the examples that follow, each entry is paired with its recorded log10 of EC50.
1. Cc1sc(N(Cc2cccc(N3CCCC3)c2)c2ccc(C#N)cc2)nc1C(=O)NS(C)(=O)=O
1.80
2. Cc1sc(N(CCC2CCCCC2)Cc2ccc(Cl)cc2)nc1C(=O)NS(C)(=O)=O
1.60
3. Cc1sc(N(Cc2ccccc2)c2ccc3ncccc3c2)nc1C(=O)NS(C)(=O)=O
2.60
4. Cc1sc(N(Cc2ccc3ccccc3c2)c2ccc(C#N)cc2)nc1C(=O)NS(C)(=O)=O
1.40
5. Cc1ncc(CN(c2ccc(C#N)cc2)c2nc(C(=O)NS(C)(=O)=O)c(C)s2)s1
2.80
6. Cc1cccc(CN(c2ccc(C#N)cc2)c2nc(C(=O)NS(C)(=O)=O)c(Cl)s2)c1
1.50
7. Cc1sc(N(Cc2ccc3c(c2)C(=O)CCO3)c2ccc(C#N)cc2)nc1C(=O)NS(C)(=O)=O
2.00
8. CCC(C)CN(c1ccc(C#N)cc1)c1nc(C(=O)NS(C)(=O)=O)c(C)s1 (centres unmarked)
2.70

Look at each molecule and report its log10 of EC50.
1. CCc1oc(N(Cc2ccc(Cl)c(Cl)c2)c2ccc(C#N)cc2)nc1C(=O)NS(C)(=O)=O
2. Cc1sc(N(CCc2ccc(C#N)cc2)Cc2ccc(Cl)cc2)nc1C(=O)NS(=O)(=O)Cc1cccc(F)c1

Resp:
[1.50, 1.80]

Okay, here is my list. What is log10 of EC50 for each of these?
1. Cc1sc(N(Cc2ccc(OCC3CCOCC3)cc2)c2ccc(C#N)cc2)nc1C(=O)NS(C)(=O)=O
2. COCCCS(=O)(=O)NC(=O)c1nc(N(Cc2ccc(Br)cc2)c2ccc(C#N)cc2)sc1C
3. Cc1sc(N(Cc2ccc(F)cc2)c2ccc(C#N)cc2)nc1C(=O)NS(=O)(=O)Cc1ccncc1
4. Cc1sc(N(CCC2CC3CCC2C3)c2ccc(C#N)cc2)nc1C(=O)NS(C)(=O)=O (centres unmarked)
5. Cc1sc(N(Cc2ccc(OC3CCCC3)cc2)c2ccc(C#N)cc2)nc1C(=O)NS(C)(=O)=O
6. COc1ccccc1CN(c1ccc(C#N)cc1)c1nc(C(=O)NS(C)(=O)=O)c(C)s1
7. CS(=O)(=O)NC(=O)c1nc(N(Cc2cccc(OC(F)(F)F)c2)c2ccc(C#N)cc2)sc1Cl
8. Cc1oc(N(CCc2ccc(OC(F)(F)F)cc2)Cc2nc(C3CC3)no2)nc1C(=O)NS(C)(=O)=O

Resp:
[1.80, 1.50, 1.60, 1.70, 1.40, 2.00, 1.50, 1.70]
